Data credit: patent US20250145608A1

- SYSTEM_UNDER_TEST: KRAS4B WT (Homo sapiens, UniProt P01116)
- Construct: HiBit; expressed in transfected cells; host or cells: GP5d cells (ECACC 95090715), stably transduced with lentivirus, CMV promoter
- Sequence (P01116 1-188 isoform P01116-2): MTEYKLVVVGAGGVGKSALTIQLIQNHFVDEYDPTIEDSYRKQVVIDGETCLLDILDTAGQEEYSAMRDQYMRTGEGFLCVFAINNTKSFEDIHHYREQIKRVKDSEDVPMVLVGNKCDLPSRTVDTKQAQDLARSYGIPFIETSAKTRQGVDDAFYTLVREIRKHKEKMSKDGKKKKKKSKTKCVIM
- ASSAY_DETAILS: HiBit KRAS4B mutant spectrum degradation assay, KRAS4B WT in GP5d cells (18 h)
- Format: cell-based
- CONDITION_INFO: KRAS mutation G12WT
PROPERTY_LABEL: DC50 (nM)
Numeric only. Scale: nM

Please indicate DC50 recorded for Cc1ncsc1-c1ccc([C@@H](NC(=O)[C@@H]2C[C@@H](O)CN2C(=O)[C@H](C(C)C)n2cc(OCCCCN3CCCN(c4nccc(-c5noc([C@@]6(C)CCCc7sc(N)c(C#N)c76)n5)n4)[C@@H](C)C3)nn2)[C@H](C)O)cc1 (single isomer, unassigned)
0.5

Please indicate DC50 recorded for `Cc1ncsc1-c1ccc(CNC(=O)[C@@H]2C[C@@H](O)CN2C(=O)[C@@H](NC(=O)CCCCCN2CCCN(c3nccc(-c4noc([C@@]5(C)CCCc6sc(N)c(C#N)c65)n4)n3)[C@@H](C)C2)C(C)(C)C)cc1`
36.2

Please indicate DC50 recorded for Cc1ncsc1-c1ccc([C@H](CO)NC(=O)[C@@H]2C[C@@H](O)CN2C(=O)[C@H](C(C)C)n2cc(OCCCC(C)N3CCCN(c4nccc(-c5noc([C@@]6(C)CCCc7sc(N)c(C#N)c76)n5)n4)[C@@H](C)C3)nn2)cc1 (stereo partly shown)
0.4

Please indicate DC50 recorded for Cc1ncsc1-c1ccc(CNC(=O)[C@@H]2C[C@@H](O)CN2C(=O)[C@@H](c2cc(OCCCN3CCCN(c4nccc(-c5noc([C@@]6(C)CCCc7sc(N)c(C#N)c76)n5)n4)[C@@H](C)C3)no2)C(C)C)cc1 (single isomer, unassigned)
0.8

---

- SYSTEM_UNDER_TEST: KRAS4B G12C (Homo sapiens, UniProt P01116, G12C)
- Construct: HiBit; expressed in transfected cells; host or cells: GP5d cells (ECACC 95090715), stably transduced with lentivirus, CMV promoter
- Sequence (P01116 1-188 isoform P01116-2 G12C): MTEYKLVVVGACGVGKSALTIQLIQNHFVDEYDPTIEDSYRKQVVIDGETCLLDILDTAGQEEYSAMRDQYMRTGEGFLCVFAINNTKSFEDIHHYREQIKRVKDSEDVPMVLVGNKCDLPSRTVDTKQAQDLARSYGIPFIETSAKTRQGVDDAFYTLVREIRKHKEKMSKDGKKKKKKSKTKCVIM
- ASSAY_DETAILS: HiBit KRAS4B mutant spectrum degradation assay, KRAS4B G12C in GP5d cells (18 h)
- Type: cell-based
- CONDITION_INFO: KRAS mutation G12C
- Excerpt: The therapeutically relevant mutant KRAS constructs (WT, G12C, G12D, G12V, G13D) were obtained by site directed mutagenesis using a KRAS4B WT cDNA construct as a template. GP5d cells (ECACC Cat. No. 95090715) were transduced with lentiviral vectors expressing mutant KRAS4B cDNA under control of a CMV promoter. Stably transduced cells were selected using a neomycin selectable marker encoded on the construct. […]
PROPERTY_LABEL: DC50 (nM)
Numeric only. Scale: nM

Please indicate DC50 recorded for Cc1ncsc1-c1ccc([C@@H](NC(=O)[C@@H]2C[C@@H](O)CN2C(=O)[C@H](C(C)C)n2cc(OCCCN3CCCN(c4nccc(-c5noc([C@@]6(C)CCCc7sc(N)c(C#N)c76)n5)n4)[C@@H](C)C3)nn2)[C@H](O)C(C)C)cc1 (single isomer, unassigned)
1.1

Please indicate DC50 recorded for Cc1ncsc1-c1ccc(CNC(=O)[C@@H]2C[C@@H](O)CN2C(=O)[C@@H](c2cc(OCCCN3CCCN(c4nccc(-c5noc([C@@]6(C)CCCc7sc(N)c(C#N)c76)n5)n4)[C@@H](C)C3)no2)C(C)C)cc1 (single isomer, unassigned)
1.9

Please indicate DC50 recorded for Cc1ncsc1-c1ccc([C@H](CO)NC(=O)[C@@H]2C[C@@H](O)CN2C(=O)[C@H](C(C)C)n2cc(OCCCC(C)N3CCCN(c4nccc(-c5noc([C@@]6(C)CCCc7sc(N)c(C#N)c76)n5)n4)[C@@H](C)C3)nn2)cc1 (stereo partly shown)
1.2

Please indicate DC50 recorded for Cc1ncsc1-c1ccc([C@@H](NC(=O)[C@@H]2C[C@@H](O)CN2C(=O)[C@H](C(C)C)n2cc(OCCCCN3CCCN(c4nccc(-c5noc([C@@]6(C)CCCc7sc(N)c(C#N)c76)n5)n4)[C@@H](C)C3)nn2)[C@H](C)O)cc1 (single isomer, unassigned)
1.2

Please indicate DC50 recorded for `Cc1ncsc1-c1ccc([C@H](CO)NC(=O)[C@@H]2C[C@@H](O)CN2C(=O)[C@H](C(C)C)n2cc(OCCCCN3CCCN(c4nccc(-c5noc([C@@]6(C)CCCc7sc(N)c(C#N)c76)n5)n4)[C@@H](C)C3)nn2)cc1`
1.4

Please indicate DC50 recorded for Cc1ncsc1-c1ccc(CNC(=O)[C@@H]2C[C@@H](O)CN2C(=O)[C@@H](c2cc(OCCCCN3CCCN(c4nccc(-c5noc([C@@]6(C)CCCc7sc(N)c(C#N)c76)n5)n4)[C@@H](C)C3)no2)C(C)C)cc1 (single isomer, unassigned)
3.7

Please indicate DC50 recorded for Cc1ncsc1-c1ccc([C@H](CO)NC(=O)[C@@H]2C[C@@H](O)CN2C(=O)[C@H](C(C)C)n2cc(OC(C)CCCN3CCCN(c4nccc(-c5noc([C@@]6(C)CCCc7sc(N)c(C#N)c76)n5)n4)[C@@H](C)C3)nn2)cc1 (stereo partly shown)
3.6

---

- SYSTEM_UNDER_TEST: KRAS4B G13D (Homo sapiens, UniProt P01116, G13D)
- Construct: HiBit; expressed in transfected cells; host or cells: GP5d cells (ECACC 95090715), stably transduced with lentivirus, CMV promoter
- Sequence (P01116 1-188 isoform P01116-2 G13D): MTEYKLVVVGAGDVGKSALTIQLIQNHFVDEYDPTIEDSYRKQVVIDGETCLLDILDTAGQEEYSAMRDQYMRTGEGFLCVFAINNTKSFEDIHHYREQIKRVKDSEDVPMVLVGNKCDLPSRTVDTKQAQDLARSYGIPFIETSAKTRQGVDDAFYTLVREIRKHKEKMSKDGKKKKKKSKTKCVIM
- ASSAY_DETAILS: HiBit KRAS4B mutant spectrum degradation assay, KRAS4B G13D in GP5d cells (18 h)
- Type: cell-based
- CONDITION_INFO: KRAS mutation G13D
PROPERTY_LABEL: DC50 (nM)
Numeric only. Scale: nM

Please indicate DC50 recorded for Cc1ncsc1-c1ccc(CNC(=O)[C@@H]2C[C@@H](O)CN2C(=O)[C@@H](c2cc(OCCCN3CCCN(c4nccc(-c5noc([C@@]6(C)CCCc7sc(N)c(C#N)c76)n5)n4)[C@@H](C)C3)no2)C(C)C)cc1 (single isomer, unassigned)
2.5

Please indicate DC50 recorded for Cc1ncsc1-c1ccc([C@H](CO)NC(=O)[C@@H]2C[C@@H](O)CN2C(=O)[C@H](C(C)C)n2cc(OC(C)CCCN3CCCN(c4nccc(-c5noc([C@@]6(C)CCCc7sc(N)c(C#N)c76)n5)n4)[C@@H](C)C3)nn2)cc1 (stereo partly shown)
2.7

Please indicate DC50 recorded for Cc1ncsc1-c1ccc([C@H](CO)NC(=O)[C@@H]2C[C@@H](O)CN2C(=O)[C@H](C(C)C)n2cc(OCCCC(C)N3CCCN(c4nccc(-c5noc([C@@]6(C)CCCc7sc(N)c(C#N)c76)n5)n4)[C@@H](C)C3)nn2)cc1 (stereo partly shown)
1

Please indicate DC50 recorded for Cc1ncsc1-c1ccc([C@@H](NC(=O)[C@@H]2C[C@@H](O)CN2C(=O)[C@H](C(C)C)n2cc(OCCCCN3CCCN(c4nccc(-c5noc([C@@]6(C)CCCc7sc(N)c(C#N)c76)n5)n4)[C@@H](C)C3)nn2)[C@H](C)O)cc1 (single isomer, unassigned)
0.8

---

- Tested on: AsPC-1 cells
- ASSAY_DETAILS: AsPC-1 CTG proliferation assay (120 h) (pancreatic cancer, G12D)
- Type: cell-based
- CONDITION_INFO: Homo sapiens, ASPC1, AsPC-1 proliferation
PROPERTY_LABEL: IC50 (µM)
Numeric only. Scale: µM

Please indicate IC50 recorded for Cc1ncsc1-c1ccc([C@H](C)NC(=O)[C@@H]2C[C@@H](O)CN2C(=O)C(C(C)C)n2cc(OCCCCN3CCCN(c4nccc(-c5noc([C@@]6(C)CCCc7sc(N)c(C#N)c76)n5)n4)[C@@H](C)C3)nn2)cc1 (stereo partly drawn)
0.072

Please indicate IC50 recorded for CC(C)C(C(=O)N1C[C@H](O)C[C@H]1C(=O)NCc1ccc(C#N)cc1)c1cc(OCCCCN2CCCN(c3nccc(-c4noc([C@@]5(C)CCCc6sc(N)c(C#N)c65)n4)n3)[C@@H](C)C2)no1 (stereo partly drawn)
0.169

Please indicate IC50 recorded for COC(=O)[C@H](NC(=O)[C@@H]1C[C@@H](O)CN1C(=O)C(C(C)C)n1cc(OCCCCN2CCCN(c3nccc(-c4noc([C@@]5(C)CCCc6sc(N)c(C#N)c65)n4)n3)[C@@H](C)C2)nn1)c1ccc(-c2scnc2C)cc1 (stereo partly drawn)
0.323

Please indicate IC50 recorded for `Cc1ncsc1-c1ccc([C@H](CO)NC(=O)[C@@H]2C[C@@H](O)CN2C(=O)[C@H](C(C)C)n2cc(OCCCCN3CCCN(c4nccc(-c5noc([C@@]6(C)CCCc7sc(N)c(C#N)c76)n5)n4)[C@@H](C)C3)nn2)cc1`
0.0972

Please indicate IC50 recorded for Cc1ncsc1-c1ccc([C@@H](NC(=O)[C@@H]2C[C@@H](O)CN2C(=O)[C@H](C(C)C)n2cc(OCCCN3CCCN(c4nccc(-c5noc([C@@]6(C)CCCc7sc(N)c(C#N)c76)n5)n4)[C@@H](C)C3)nn2)[C@H](O)C(C)C)cc1 (single isomer, unassigned)
0.0521

Please indicate IC50 recorded for CC(C)C(C(=O)N1C[C@H](O)C[C@H]1C(=O)NCc1ccc(-c2scnc2CO)cc1)c1cc(OCCCCN2CCCN(c3nccc(-c4noc([C@@]5(C)CCCc6sc(N)c(C#N)c65)n4)n3)[C@@H](C)C2)no1 (stereo partly drawn)
0.47

Please indicate IC50 recorded for Cc1ncsc1-c1ccc(CNC(=O)[C@@H]2C[C@@H](O)CN2C(=O)C(c2cc(OCCCCN3CCCN(c4nccc(-c5cc([C@@]6(C)CCCc7sc(N)c(C#N)c76)no5)n4)[C@@H](C)C3)no2)C(C)C)cc1 (stereo partly drawn)
0.645

Please indicate IC50 recorded for CC(C)C(C(=O)N1C[C@H](O)C[C@H]1C(=O)NCc1ccc(C#N)c(Cl)c1)c1cc(OCCCCN2CCCN(c3nccc(-c4noc([C@@]5(C)CCCc6sc(N)c(C#N)c65)n4)n3)[C@@H](C)C2)no1 (stereo partly drawn)
0.435

Please indicate IC50 recorded for Cc1ncsc1-c1ccc([C@H](CO)NC(=O)[C@@H]2C[C@@H](O)CN2C(=O)[C@H](C(C)C)n2cc(OCCCC(C)N3CCCN(c4nccc(-c5noc([C@@]6(C)CCCc7sc(N)c(C#N)c76)n5)n4)[C@@H](C)C3)nn2)cc1 (stereo partly drawn)
0.069
